meta.source: PubChem BioAssay (NCI)

- System: OVCAR-3 ovarian
- Assay details: NCI tumour cell line growth inhibition, 48 h
Quantity name: GI50

1) CC1(C)COC(c2ccc(C(F)(F)F)cc2C(O)c2ccc3ccccc3c2)=N1 (configuration not stated) ... > 100 µM
2) CC1=C(C(=O)Nc2ccc(F)c(Cl)c2)C(c2ccc(Cl)cc2)NC(=O)N1 (configuration not stated) ... 17.8 µM
3) COc1cc(/C=C/c2cc(/C=C/c3ccc(O)c(OC)c3)n(C(=O)Nc3ccc(F)cc3)n2)ccc1O ... 0.474 µM
4) CC1=C(C#N)C23C(=O)c4ccccc4C(O)=C2C(=O)C=CC3(O)N1Cc1ccccc1 (configuration not stated) ... 32 µM
5) NC1CCC(Nc2nc(NCc3ccc(-c4ccco4)nc3)c3ncn(C4CCCC4)c3n2)CC1 (configuration not stated) ... 0.0273 µM
6) Clc1cccc(Cc2cn3cc(-c4ccccc4)nc3s2)c1Cl ... 37.9 µM
7) O=C(CN1CCN(c2cc3c(cc2F)c(=O)c(C(=O)N/N=C/c2ccccc2O)cn3C2CC2)CC1)N/N=C\c1ccccc1O ... 0.269 µM
